Reported Cytotox (% viable) Neuronal cells at 10 μM values follow for various molecules
System: primary cortical neuronal cultured cells
Test: Test compound cytotoxicity, MTS assay, primary cortical neuronal cultures
Type: cell-based, mouse
Details: 10 μM test compound
Answer format: numeric, % implied, no suffix.

>>> experimental_result("CN(C)Cc1ccc2c(Cl)cc(Cl)c(O)c2n1.Cl")
72

Enquiry: Which Cytotox (% viable) Neuronal cells at 10 μM is reported for this molecule? O=c1c2c(Cl)cc(Cl)c(O)c2ncn1Nc1ccc(F)cc1F
Return: 92

Enquiry: Which Cytotox (% viable) Neuronal cells at 10 μM is reported for this molecule? Oc1c(I)cc(-c2ccccc2C(F)(F)F)c2cccnc12
Return: 90

Enquiry: Which Cytotox (% viable) Neuronal cells at 10 μM is reported for this molecule? Cc1ccc(-n2cnc3c(O)c(Cl)cc(Cl)c3c2=O)nc1
Return: 83

Enquiry: Which Cytotox (% viable) Neuronal cells at 10 μM is reported for this molecule? O=C(NCc1ccccn1)c1ccc2cccc(O)c2n1
Return: 85

Enquiry: Which Cytotox (% viable) Neuronal cells at 10 μM is reported for this molecule? COc1ccccc1-c1cc(I)c(O)c2ncccc12
Return: 35

Enquiry: Which Cytotox (% viable) Neuronal cells at 10 μM is reported for this molecule? O=C(NCCc1c[nH]cn1)c1ccc2c(Cl)cc(Cl)c(O)c2n1
Return: 84

Enquiry: Which Cytotox (% viable) Neuronal cells at 10 μM is reported for this molecule? Cl.Nc1ccc(O)c2ncccc12
Return: 71

Enquiry: Which Cytotox (% viable) Neuronal cells at 10 μM is reported for this molecule? Cc1cnc(NC(=O)c2ccc3cccc(O)c3n2)s1
Return: 68

Enquiry: Which Cytotox (% viable) Neuronal cells at 10 μM is reported for this molecule? CN(c1ccc2cccc(O)c2n1)c1ccc2cccc(O)c2n1
Return: 25

###

Biological target: Abeta:Zn (25:50 μM) Synthetic Aggregations (Homo sapiens, UniProt P05067)
Construct: PB Compound Mediated Dissolution of Aggregated Abeta 1-42
Sequence (P05067 672-713 limits assumed): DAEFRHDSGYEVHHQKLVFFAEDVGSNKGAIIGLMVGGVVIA
Test: Disaggregation of Abeta:Zn synthetic aggregates (ThT fluorescence)
Settings: Abeta:Zn 25:50 μM aggregates
Assay readout: pEC50
Worth noting: pEC50 values are minus log10 of concentrations stated in mol/L.

Record excerpt, results attached:
>>> experimental_result("Oc1c(Cl)cc(Cl)c2cccnc12")
5.07
>>> experimental_result("CCCn1cnc2c(O)c(I)ccc2c1=S")
5.33
>>> experimental_result("O=c1c2c(Cl)ccc(O)c2ncn1CC1CC1")
4.82

Enquiry: Which pEC50 is reported for this compound? O=C1c2ccccc2C(=O)N1CCn1cnc2c(O)c(I)ccc2c1=O
Return: 5.37

Enquiry: Which pEC50 is reported for this compound? CCc1cnc2c(O)c(I)ccn2c1=O
Return: 5.35

Enquiry: Which pEC50 is reported for this compound? O=c1c2c(Cl)cc(I)c(O)c2ncn1CC1CC1
Return: 5.46

Enquiry: Which pEC50 is reported for this compound? CCCCNC(=O)c1cnc2c(O)c(I)ccn2c1=O
Return: 5.39

Enquiry: Which pEC50 is reported for this compound? O=c1c2c(Cl)cc(I)c(O)c2ncn1Cc1ccccn1
Return: 4.71

Enquiry: Which pEC50 is reported for this compound? O=c1c2ccc(I)c(O)c2ncn1CC1CC1
Return: 5.25

###

System: M17 human neuroblastoma cells
Test: Cytotoxicity, M17 human neuroblastoma cells
Format: cell-based
Settings: 10 μM test compound
Reported Cytotox (% viable) M17 cells at 10 μM values follow for various compounds
Give the figure together with its unit, number first.

>>> experimental_result("O=C(Nc1nc2ccc(F)cc2s1)c1cnc2c(O)cccn2c1=O [PB 1174]")
"34.2%"
>>> experimental_result("O=c1c2c(Cl)cc(Cl)c(O)c2ncn1CCNCc1ccncc1 [PB 1264]")
"104.8%"
>>> experimental_result("CC(C)c1cnc2c(O)c(I)ccn2c1=O [PB 1142]")
"44.2%"

Enquiry: Requested read-out Cytotox (% viable) M17 cells at 10 μM, target or system M17 human neuroblastoma cells, entry O=c1c2c(Cl)cc(Cl)c(O)c2ncn1-c1ccccn1 [PB 1242]
Return: 102.6%

Enquiry: Requested read-out Cytotox (% viable) M17 cells at 10 μM, target or system M17 human neuroblastoma cells, entry O=C(NCc1ccc(F)cc1)c1cnc2c(O)c(I)ccn2c1=O [PB 1158]
Return: 56%

###

Target: Abeta:Zn (25:50 μM) Synthetic Aggregations (Homo sapiens, UniProt P05067)
Construct: PB Compound Mediated Dissolution of Aggregated Abeta 1-42; purchased Keck Laboratory, Yale University School of Medicine
Experiment: Disaggregation of Abeta:Zn synthetic aggregates (ThT fluorescence)
Format: biochemical
Conditions: Abeta:Zn 25:50 μM aggregates
EC50 strictly under 5 µM means fulfilled; at 5 µM or over means not fulfilled.

Please review the following examples before continuing.
>>> label("O=c1c2ccc(I)c(O)c2ncn1-c1ccc(F)cc1F")
"not fulfilled"
>>> label("COc1ccc(-n2cnc3c(O)c(Cl)cc(Cl)c3c2=O)cn1")
"not fulfilled"
>>> label("O=c1c2c(Cl)ccc(O)c2ncn1Cc1ccccn1")
"not fulfilled"
>>> label("CCn1cnc2c(O)c(I)cc(I)c2c1=O")
"fulfilled"

Enquiry: Bench note: check whether O=c1c2c(Cl)cc(Cl)c(O)c2ncn1CCN1CCCC1 shows EC50 below 5 µM
Return: not fulfilled

Enquiry: Bench note: check whether O=c1c2cccc(O)c2ncn1CC1CC1 shows EC50 below 5 µM
Return: fulfilled

Enquiry: Bench note: check whether O=c1c(-c2ccc(Cl)cc2)cnc2c(O)cccn12 shows EC50 below 5 µM
Return: not fulfilled

###

Target: Abeta:Zn (25:50 μM) Synthetic Aggregations (Homo sapiens)
Construct: PB Compound Mediated Dissolution of Aggregated Abeta 1-42; purchased Keck Laboratory, Yale University School of Medicine
Experiment: Disaggregation of Abeta:Zn synthetic aggregates (ThT fluorescence)
Type: biochemical
Settings: 5 μM test compound
Reported Disaggregation % Aggregate reduction at 5 μM values follow for various compounds
Give the figure together with its unit, number first.

Record excerpt, results attached:
>>> experimental_result("O=C1c2ccccc2C(=O)N1CCn1cnc2c(O)c(I)ccc2c1=O")
"53%"
>>> experimental_result("CCc1cnc2c(O)c(I)ccn2c1=O")
"55%"

Enquiry: Which Disaggregation % Aggregate reduction at 5 μM is reported for this compound? Nc1ccccc1NC(=O)c1cc(O)c2cccc(O)c2n1
Return: 28%

Enquiry: Which Disaggregation % Aggregate reduction at 5 μM is reported for this compound? Br.C/C=C/Cn1cnc2c(O)c(Cl)cc(Cl)c2c1=O
Return: 69%

Enquiry: Which Disaggregation % Aggregate reduction at 5 μM is reported for this compound? CN(C)Cc1ccc2c(Cl)cc(Cl)c(O)c2n1.Cl
Return: 33.2%

Enquiry: Which Disaggregation % Aggregate reduction at 5 μM is reported for this compound? CCCCc1cnc2c(O)c(I)ccn2c1=O
Return: 28%

Enquiry: Which Disaggregation % Aggregate reduction at 5 μM is reported for this compound? O=c1c2c(Cl)cc(Cl)c(O)c2ncn1CC1CC1
Return: 15.1%

Enquiry: Which Disaggregation % Aggregate reduction at 5 μM is reported for this compound? O=c1c(-c2ccc(Cl)cc2)cnc2c(O)cccn12
Return: 34.8%

###

Tested on: M17 human neuroblastoma cells
Test: Cytotoxicity, M17 human neuroblastoma cells
Type: cell-based
Details: 10 μM test compound
Reported Cytotox (% viable) M17 cells at 10 μM values follow for various molecules
Answer format: numeric, % implied, no suffix.

Record excerpt, results attached:
>>> experimental_result("O=c1c2c(Cl)cc(Cl)c(O)c2ncn1Cc1cccnc1")
100.2
>>> experimental_result("Cc1noc(C)c1Cn1cnc2c(O)c(Cl)cc(Cl)c2c1=O")
76.2
>>> experimental_result("O=c1c2ccc(I)c(O)c2ncn1Cc1ccccn1")
79.5
>>> experimental_result("CCn1cnc2c(O)c(Cl)cc(Cl)c2c1=O")
95.9
>>> experimental_result("O=c1c2c(Cl)cc(Cl)c(O)c2ncn1CCN1CCCC1")
101.3
>>> experimental_result("CCCc1cnc2c(O)cccn2c1=O")
45.2
>>> experimental_result("CC(C)c1cnc2c(O)cccn2c1=O")
45.6
>>> experimental_result("Br.CN(C)Cc1nc2c(O)c(Cl)cc(Cl)c2c(=O)[nH]1")
100.3

Enquiry: Requested read-out Cytotox (% viable) M17 cells at 10 μM, target or system M17 human neuroblastoma cells, entry CCCCCn1cnc2c(O)c(I)ccc2c1=O
Return: 38.5

Enquiry: Requested read-out Cytotox (% viable) M17 cells at 10 μM, target or system M17 human neuroblastoma cells, entry O=c1c2c(Cl)cc(Cl)c(O)c2ncn1Cc1cccc(Cn2cnc3c(O)c(Cl)cc(Cl)c3c2=O)n1
Return: 26.8

###

Target: Aβ 1-42 (Homo sapiens, UniProt P05067)
Construct: The reaction solutions contained Aβ 1-42 at concentrations
Assay: Fluorometric H2O2 assay (inhibition of Abeta H2O2 production)
Format: biochemical
Settings: concentration required to inhibit 50% of Abeta H2O2 production; read-out: H2O2 IC50
Reported pIC50 values follow for various compounds
Worth noting: pIC50 values are minus log10 of concentrations stated in mol/L.

>>> experimental_result("CCn1c(CN(C)C)nc2c(O)c(Cl)cc(Cl)c2c1=O.Cl [PB 1268]")
6.44
>>> experimental_result("CC(C)n1cnc2c(O)c(I)ccc2c1=O [PB 1153]")
6.49
>>> experimental_result("Oc1c(I)cc(-c2ccccc2C(F)(F)F)c2cccnc12 [PB 860]")
6.10
>>> experimental_result("O=C(O)Cn1cnc2c(O)c(Cl)cc(Cl)c2c1=O [PB 1249]")
6.31
>>> experimental_result("O=c1c2c(Cl)cc(Cl)c(O)c2ncn1Cc1nc2ccccc2s1 [PB 1257]")
6.16

Moving on to another compound below.
Enquiry: Which pIC50 is reported for this compound? CN(C)Cc1ccc2c(Cl)cc(I)c(O)c2n1 [PB 1177]
Return: 6.54
